Each recorded value in this set is attributed to ChEMBL document CHEMBL4680063.

Listing of entries alongside the reported EC50.
# STUDY_SYSTEM: Delta-type opioid receptor (Homo sapiens)
# Sequence (P41143 whole entry): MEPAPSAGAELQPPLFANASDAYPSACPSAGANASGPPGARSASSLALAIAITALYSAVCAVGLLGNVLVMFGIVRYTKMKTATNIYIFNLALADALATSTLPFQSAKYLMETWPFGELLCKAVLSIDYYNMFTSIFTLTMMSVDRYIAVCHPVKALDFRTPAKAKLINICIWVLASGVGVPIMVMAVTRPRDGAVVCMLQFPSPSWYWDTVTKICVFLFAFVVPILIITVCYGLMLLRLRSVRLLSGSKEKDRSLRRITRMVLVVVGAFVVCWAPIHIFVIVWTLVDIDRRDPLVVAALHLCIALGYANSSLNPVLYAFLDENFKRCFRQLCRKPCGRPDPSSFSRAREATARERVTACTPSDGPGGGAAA
# TEST_METHOD_NOTES: Agonist activity at human DOR expressed in CHOK1 cells assessed as inhibition of forskolin-stimulated cAMP accumulation incubated for 30 mins by luminescence assay
Give just the number in nM; leave the unit off.

Oc1cccc([C@@]23CCC[C@H]([C@H]2O)N(CCc2ccccc2)CC3)c1 :: 2.6

Check the records and state EC50 for OCCC[C@H]1[C@@H]2CCC[C@@]1(c1cccc(O)c1)CCN2CCc1ccccc1
80.9
